ASSAY_TARGET: PAR2 (HT-29 cells, trypsin activation) (Homo sapiens, UniProt P55085)
Construct: host or cells: HT-29 cells
Sequence (P55085 26-397): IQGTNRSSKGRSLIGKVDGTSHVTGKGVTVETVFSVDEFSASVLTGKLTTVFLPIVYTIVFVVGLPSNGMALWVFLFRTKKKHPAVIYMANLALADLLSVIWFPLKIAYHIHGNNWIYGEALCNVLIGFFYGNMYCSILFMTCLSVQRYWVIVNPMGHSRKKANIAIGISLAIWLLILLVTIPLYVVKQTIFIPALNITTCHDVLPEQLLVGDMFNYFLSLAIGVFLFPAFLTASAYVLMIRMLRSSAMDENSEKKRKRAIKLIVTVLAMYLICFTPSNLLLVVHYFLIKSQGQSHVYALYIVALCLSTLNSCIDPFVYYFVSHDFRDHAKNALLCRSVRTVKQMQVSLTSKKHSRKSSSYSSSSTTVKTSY
ASSAY_METHOD_TEXT: Ca FLIPR TETRA assay, ANTAGONIST mode, stimulation with 3.1 U/mL trypsin
Type: cell-based
DETAILS: HT-29 cells, antagonist mode, stimulation with 3.1 U/mL trypsin
IC50 under 6 nM gets class 1, anything at or over 6 nM gets class 0.

- MOLECULE: "CC(C)(C)c1cc(C2CCC(F)(F)CC2)nn2cc(C(=O)N3CCN(C(=O)[C@H]4C[C@@](C)(O)C4)CC3(C)C)nc12"
  LABEL: "class 0"

Report whether reported IC50 is lower than 6 nM (strictly) for "C[C@@H]1C[C@H](c2cc(-c3ccc(F)cc3)nn3cc(C(=O)N4CCN(C(=O)OC(C)(C)C)CC4(C)C)nc23)C[C@H](C)O1"
class 0

Report whether reported IC50 is lower than 6 nM (strictly) for "CC(C)c1cc(-c2ccc(C(F)(F)F)cc2)nn2cc(C(=O)N3CCN(C(=O)c4ccccn4)CC3(C)C)nc12"
class 1

Report whether reported IC50 is lower than 6 nM (strictly) for CC1(C)CN(C(=O)C2CC(O)(C(F)(F)F)C2)CCN1C(=O)c1cn2nc(-c3ccc(F)cc3)cc(C3CCOCC3)c2n1 (stereo not drawn)
class 0

Report whether reported IC50 is lower than 6 nM (strictly) for "CC(C)(C)c1cc(-c2ccc(Br)cc2)nn2cc(C(=O)N3CCNC(=O)C3(C)C)nc12"
class 1

Report whether reported IC50 is lower than 6 nM (strictly) for "Cc1cccc(-c2cc(C(C)(C)C)c3nc(C(=O)N4CCN(C(=O)c5nnc(C)o5)CC4(C)C)cn3n2)c1"
class 0

###

ASSAY_TARGET: PAR2 (HT-29 cells, SLIGKV activation) (Homo sapiens)
Construct: host or cells: HT-29 cells
Sequence (P55085 26-397): as above
ASSAY_METHOD_TEXT: Ca FLIPR TETRA assay, ANTAGONIST mode, stimulation with 8 μM SLIGKV
Type: cell-based
DETAILS: HT-29 cells, antagonist mode, stimulation with 8 μM SLIGKV
Procedure: Example 60: Protocol for Testing PAR2 Compounds in ANTAGONIST Mode Using the Ca FLIPR^TETRA Assay (384 Well) […] A first read was performed to determine whether the test compounds on their own can activate Ca2+ responses. The cells were incubated with the compounds for 30 min at r. t. and then read in ANTAGONIST mode in the same plate by stimulating with 6.2 uL of a fixed concentration of the activator: final concentrations: 8 μM SLIGKV, 1 U/mL Thrombin, 3.1 U/mL trypsin, or 0.6 μM UTP.
MEASUREMENT_NAME: pIC50
Give bare numbers, as −log10 of the molar value.

Example results:
- MOLECULE_SMILES: "Cc1nnc(C(=O)N2CCN(C(=O)c3cn4nc(-c5ccc(F)c(C)c5)cc(C(C)C)c4n3)C(C)(C)C2)o1"
  pIC50: 7.81
- MOLECULE_SMILES: "CC(C)c1cc(-c2ccc(F)cc2)nn2cc(C(=O)N3CCN(C(=O)c4cn[nH]c4)CC3(C)C)nc12"
  pIC50: 8.25
- MOLECULE_SMILES: "Cc1ccc(-c2cc(C(C)(C)C)c3nc(C(=O)N4CCN(C(=O)c5ccccn5)CC4(C)C)cn3n2)cc1"
  pIC50: 8.74
- MOLECULE_SMILES: "CC(C)(C)c1cc(C2CCC(F)(F)CC2)nn2cc(C(=O)N3CCN(C(=O)[C@H]4C[C@@](C)(O)C4)CC3(C)C)nc12"
  pIC50: 8.48
- MOLECULE_SMILES: "CC(C)c1cc(-c2ccc(C(F)(F)F)c(F)c2)nn2cc(C(=O)N3CCN(C(=O)c4ccn[nH]4)CC3(C)C)nc12"
  pIC50: 8.89

Provide pIC50 for all items below, preserving their order.
1. CC(C)c1cc(-c2ccc(F)c(F)c2)nn2cc(C(=O)N3CCN(C(=O)c4ccncn4)CC3(C)C)nc12
2. Cc1cn[nH]c1C(=O)N1CCN(C(=O)c2cn3nc(-c4ccc(F)cc4)cc(C(C)(C)C)c3n2)C(C)(C)C1
3. CC(C)(C)OC(=O)N1CCN(C(=O)c2cn3nc(-c4ccc(F)cc4)cc(C(C)(C)C)c3n2)C(C)(C)C1
4. COCC(C)(C)c1cc(-c2ccc(F)cc2)nn2cc(C(=O)N3CCNC(=O)C3(C)C)nc12
5. CC(C)(C)c1cc(-c2ccc(F)cc2)nn2cc(C(=O)N3CCN(C4CC4)C(=O)C3(C)C)nc12
6. CC(C)c1cc(-c2ccc(Cl)cc2)nn2cc(C(=O)N3CCN(C(=O)[C@H]4CC[C@H](C(=O)O)CC4)CC3(C)C)nc12

1. 8.21
2. 8.47
3. 8.38
4. 8.28
5. 9.10
6. 7.56
